- Tested on: lipase
- Run Description: Ru(phen)2dppz fluorescence displacement
- Test Settings: no displacement up to 250 µM; aptamer given as variable region, S11b inferred; Ru displacement: 50 nM aptamer in binding solution (composition not given), excitation 434 nm, emission 610 nm; thermal assay: binding solution, 1 h ambient …
pKd: −log10 of the molar value.
Quantity Kind: pKd

- Biosequence: "GGCAACATACTGTAAAGCTCAGGAC [S11b (S11 variable region)]"
  Obs Value: "< 3.60"
